Biological target: HLA-A*02:01 (Homo sapiens, UniProt P04439, D140Y/D185E/D98H/E176V/E277Q/G131W/G231S/I119V/I121R/I166T/I218V/L300P/L318F/N151K/N90K/P208A/P217A/Q86G/Q94H/R138H/R169H/T345S)
Test: MHC binding assay: UV-ligand exchange with beta2m ELISA (peptide exchange yield)
Settings: binding to HLA-A*02:01
Source text: Candidate peptides for T cell based therapies according to the present invention were further tested for their MHC binding capacity (affinity). The individual peptide-MHC complexes were produced by UV-ligand exchange, where a UV-sensitive peptide is cleaved upon UV-irradiation, and exchanged with the peptide of interest as analyzed. Only peptide candidates that can effectively bind and stabilize the peptide-receptive MHC molecules prevent dissociation of the MHC complexes. […]
measurement.name: Peptide exchange (MHC class I binding score, peptide exchange yield)

{"substance": "29 (KMLGIPISNILMV; listed as Homo sapiens) [compound 29]", "assay.result": "“+++” (≥50 = +++)"}
{"substance": "309 (GLFDGVPTTA; listed as Homo sapiens) [compound 309]", "assay.result": "“+++” (≥50 = +++)"}
{"substance": "588 (SLLPLSHLV; listed as Homo sapiens) [compound 588]", "assay.result": "“+++” (≥50 = +++)"}
{"substance": "599 (YLLNDASLISV; listed as Homo sapiens) [compound 599]", "assay.result": "“+++” (≥50 = +++)"}
{"substance": "513 (SLWPSPEQL; listed as Homo sapiens) [compound 513]", "assay.result": "“++” (≥20% = ++)"}
{"substance": "580 (LLMENAERV; listed as Homo sapiens) [compound 580]", "assay.result": "“++” (≥20% = ++)"}

Query: Find the recorded Peptide exchange (MHC class I binding score, peptide exchange yield) belonging to 550 (FLYDEIEAEVNL; listed as Homo sapiens) [compound 550] and report it.
Result: “+++” (≥50 = +++)

Query: Find the recorded Peptide exchange (MHC class I binding score, peptide exchange yield) belonging to 463 (SLVESHLSDQLTL; listed as Homo sapiens) [compound 463] and report it.
Result: “+++” (≥50 = +++)

Query: Find the recorded Peptide exchange (MHC class I binding score, peptide exchange yield) belonging to 312 (IISDLTIAL; listed as Homo sapiens) [compound 312] and report it.
Result: “+++” (≥50 = +++)

Query: Find the recorded Peptide exchange (MHC class I binding score, peptide exchange yield) belonging to 620 (KLLNKIYEA; listed as Homo sapiens) [compound 620] and report it.
Result: “++++” (≥75% = ++++)

Query: Find the recorded Peptide exchange (MHC class I binding score, peptide exchange yield) belonging to 209 (KLIESKHEV; listed as Homo sapiens) [compound 209] and report it.
Result: “++” (≥20% = ++)
